# testSystem: mu opioid receptor peptide Mu OPR 38–51 (Homo sapiens)
# Construct: Mu OPR 38–51; purchased RS Synthesis (Louisville, KY, USA); host or cells: chemical synthesis
# assayText: biochemical
# Assay type: binding
# testSettings: read-out: Kd (µM) Mu OPR 38–51
endpoint: Kd

# input compound: O=C1OC(C(O)CO)C(=O)C1=O (centres unmarked) [Dehydro Asc, dehydroascorbic acid] ; wanted: its Kd
> 1000 µM

Now for the compound whose Kd we want.
Which Kd value belongs to CNC[C@H](O)c1cccc(O)c1 ?
1 µM

----------
# testSystem: mu opioid receptor peptide Mu OPR 121–131 (Homo sapiens)
# Construct: Mu OPR 121–131; purchased RS Synthesis (Louisville, KY, USA); host or cells: chemical synthesis
# assayText: biochemical
# Format: binding
# testSettings: UV spectrophotometry; single value, or first (higher-affinity) value of a cell a/b
endpoint: Kd

Enter reported Kd observed with mu opioid receptor peptide Mu OPR 121–131 (Homo sapiens) for N[C@@H](Cc1ccccc1)C(=O)O
> 1000 µM

Now, please, on to the next compound.
# returns recorded Kd (system: mu opioid receptor peptide Mu OPR 121–131 (Homo sapiens)) for N[C@@H](Cc1ccc(O)cc1)C(=O)O
> 1000 µM

Each recorded value in this set is attributed to paper PMC7504417.
